- EXPERIMENTAL PROTOCOL: Half life in Sprague-Dawley rat at 1 mg/kg, iv measured for 0.083 to 4 hrs by LC-MS/MS analysis
- Type: ADME, organism-based
- STATED CONDITIONS: in vivo
ASSAY METRIC: half-life

Item under review: `CNCCn1c(=O)c2cc(OC)c(OC)cc2c2ccc3cc4c(cc3c21)OCO4` . Reported half-life? 1.21 h

* * *

- Tested on: MCF7
- EXPERIMENTAL PROTOCOL: cells
- STATED CONDITIONS: Homo sapiens, MCF7, 72 h
ASSAY METRIC: GI50 (µM)
Answers are plain numbers, in µM.

Consider the following items and state reported GI50 for each.
1. COc1cc2c(=O)n(CCN(C)S(=O)(=O)C3CC3)c3c4cc5c(cc4ccc3c2cc1OC)OCO5
2. COc1cc2c(=O)n(C)c3c4cc5c(cc4ccc3c2cc1OC)OCO5
3. COc1cc2c(=O)n(CCNS(=O)(=O)N3CCCC3)c3c4cc5c(cc4ccc3c2cc1OC)OCO5
4. CNCCn1c(=O)c2cc(OC)c(OC)cc2c2ccc3cc4c(cc3c21)OCO4
5. COc1cc2c(=O)n(CCN(C)S(=O)(=O)N3CCOCC3)c3c4cc5c(cc4ccc3c2cc1OC)OCO5
6. COc1cc2c(=O)n(CCNC(=O)C3CC3)c3c4cc5c(cc4ccc3c2cc1OC)OCO5
7. COc1cc2c(=O)n(CCNS(=O)(=O)C3CC3)c3c4cc5c(cc4ccc3c2cc1OC)OCO5
8. COc1cc2c(=O)n(CCN(C)P(=O)(OC)OC)c3c4cc5c(cc4ccc3c2cc1OC)OCO5

5.8
31
38
0.09
64
2.2
3
10

Any idea what GI50 came out for `COc1cc2c(=O)n(CCN(C)S(=O)(=O)C(F)(F)F)c3c4cc5c(cc4ccc3c2cc1OC)OCO5` on MCF7? 35

* * *

- EXPERIMENTAL PROTOCOL: AUC (0 to infinity) in Sprague-Dawley rat at 1 mg/kg, iv measured for 0.083 to 4 hrs by LC-MS/MS analysis
- Assay type: ADME, organism-based
- Design: dose 1 mg/kg, route intravenous, time infinity
- STATED CONDITIONS: in vivo
ASSAY METRIC: AUC(0-inf) (ng·h/mL)
One number for each entry, in ng·h/mL.

Item under review: `CNCCn1c(=O)c2cc(OC)c(OC)cc2c2ccc3cc4c(cc3c21)OCO4` . Reported AUC(0-inf)? 49.5

* * *

- System: DU-145
- EXPERIMENTAL PROTOCOL: cells
- STATED CONDITIONS: Homo sapiens, DU-145, 72 h
Lab note: cut-off is 8 µM. Strictly less in GI50 is T. Exactly 8 µM or more is F.

# example entries with known answers
COc1cc2c(=O)n(CCNS(=O)(=O)N3CCOCC3)c3c4cc5c(cc4ccc3c2cc1OC)OCO5 :: T
COc1cc2c(=O)n(CCNS(=O)(=O)C3CC3)c3c4cc5c(cc4ccc3c2cc1OC)OCO5 :: T
CNCCn1c(=O)c2cc(OC)c(OC)cc2c2ccc3cc4c(cc3c21)OCO4 :: T
COc1cc2c(=O)n(CCN(C)S(=O)(=O)N(C)C)c3c4cc5c(cc4ccc3c2cc1OC)OCO5 :: F

Quick check: does `COc1cc2c(=O)n(CCN(C)S(=O)(=O)C3CC3)c3c4cc5c(cc4ccc3c2cc1OC)OCO5` have GI50 under 8 µM? F

Quick check: does `COc1cc2c(=O)n(CCNS(=O)(=O)N(C)C)c3c4cc5c(cc4ccc3c2cc1OC)OCO5` have GI50 under 8 µM? F

Quick check: does `COc1cc2c(=O)n(CCN(C)S(=O)(=O)N3CCOCC3)c3c4cc5c(cc4ccc3c2cc1OC)OCO5` have GI50 under 8 µM? F

Quick check: does `COc1cc2c(=O)n(CCNP(=O)(OC)OC)c3c4cc5c(cc4ccc3c2cc1OC)OCO5` have GI50 under 8 µM? F

Quick check: does `COc1cc2c(=O)n(CCN(C)P(=O)(OC)OC)c3c4cc5c(cc4ccc3c2cc1OC)OCO5` have GI50 under 8 µM? T

Quick check: does `COc1cc2c(=O)n(CCN(C)S(=O)(=O)C(F)(F)F)c3c4cc5c(cc4ccc3c2cc1OC)OCO5` have GI50 under 8 µM? F

Quick check: does `COc1cc2c(=O)n(CCNS(=O)(=O)N3CCCC3)c3c4cc5c(cc4ccc3c2cc1OC)OCO5` have GI50 under 8 µM? F

Quick check: does `COc1cc2c(=O)n(C)c3c4cc5c(cc4ccc3c2cc1OC)OCO5` have GI50 under 8 µM? F

Quick check: does `COc1cc2c(=O)n(CCN)c3c4cc5c(cc4ccc3c2cc1OC)OCO5` have GI50 under 8 µM? T

Quick check: does `COc1cc2c(=O)n(CCN(C)S(=O)(=O)N3CCCC3)c3c4cc5c(cc4ccc3c2cc1OC)OCO5` have GI50 under 8 µM? T
